system.tested: Metabotropic glutamate receptor 4 (Homo sapiens, UniProt Q14833)
Sequence (Q14833 whole entry): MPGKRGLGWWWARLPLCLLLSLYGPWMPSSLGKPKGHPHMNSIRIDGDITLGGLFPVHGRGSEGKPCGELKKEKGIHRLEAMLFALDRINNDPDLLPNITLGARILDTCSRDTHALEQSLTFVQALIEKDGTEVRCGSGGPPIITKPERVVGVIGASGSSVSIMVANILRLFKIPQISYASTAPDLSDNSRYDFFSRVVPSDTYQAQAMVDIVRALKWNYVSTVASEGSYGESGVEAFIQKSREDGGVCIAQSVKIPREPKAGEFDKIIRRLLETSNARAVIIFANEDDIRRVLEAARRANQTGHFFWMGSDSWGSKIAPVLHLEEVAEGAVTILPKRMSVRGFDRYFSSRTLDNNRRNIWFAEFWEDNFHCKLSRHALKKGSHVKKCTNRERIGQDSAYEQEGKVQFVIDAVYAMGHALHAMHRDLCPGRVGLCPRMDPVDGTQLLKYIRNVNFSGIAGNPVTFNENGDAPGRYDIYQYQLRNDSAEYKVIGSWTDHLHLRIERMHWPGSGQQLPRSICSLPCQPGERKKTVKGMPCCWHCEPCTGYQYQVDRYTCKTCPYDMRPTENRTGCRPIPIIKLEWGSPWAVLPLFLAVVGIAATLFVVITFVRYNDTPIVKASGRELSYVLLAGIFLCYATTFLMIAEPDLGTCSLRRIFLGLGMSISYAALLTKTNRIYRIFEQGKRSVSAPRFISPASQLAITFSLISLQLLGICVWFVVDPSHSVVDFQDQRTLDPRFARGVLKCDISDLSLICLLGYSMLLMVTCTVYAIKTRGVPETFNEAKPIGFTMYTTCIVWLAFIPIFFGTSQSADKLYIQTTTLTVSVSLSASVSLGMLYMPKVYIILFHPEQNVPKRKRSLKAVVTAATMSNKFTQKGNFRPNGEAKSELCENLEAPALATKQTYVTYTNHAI
method.notes: Allosteric modulator activity at human mGlu4 receptor expressed in CHO cells coexpressing Gqi5 assessed as effect on calcium flux in relative to glutamate
Assay type: functional, cell-based
measured.attribute: Emax (%)
Answers are plain numbers, in %.

Here are 4 compounds together with their reported answers.
smiles.structure | Emax / %
O=C(Nc1cc(F)cc(Cl)c1)[C@H]1CCCC[C@H]1C(=O)O | 138
NC(=O)[C@@H]1CC=CC[C@@H]1C(=O)Nc1cc(Cl)cc(Cl)c1 | 94
O=C(Nc1cc(Cl)cc(Cl)c1)[C@H]1CC=CC[C@H]1C(=O)O | 150
O=C1[C@H]2CCCC[C@H]2C(=O)N1c1cc(Cl)cc(Cl)c1 | 152

Q) Recorded Emax of NC(=O)[C@@H]1CCCC[C@@H]1C(=O)Nc1cc(Cl)cc(Cl)c1 , please.
A) 104

----------
system.tested: UniProtKB Q14833
method.notes: Allosteric modulator activity at human mGlu4 receptor expressed in CHO cells coexpressing Gqi5 assessed as effect on calcium flux
Format: functional, cell-based
experimental.conditions: read-out: EC50
measured.attribute: pEC50
Numbers only, as −log10 of the molar value.

Past entries and their recorded results:
compound | system.tested | pEC50
N#C[C@@H]1CCCC[C@@H]1C(=O)Nc1cc(Cl)cc(Cl)c1 | UniProtKB Q14833 | 5.70
O=C(Nc1cc(F)cc(Cl)c1)[C@H]1CCCC[C@H]1C(=O)O | UniProtKB Q14833 | 5.70
CNC(=O)[C@@H]1CCCC[C@@H]1C(=O)Nc1cc(Cl)cc(Cl)c1 | UniProtKB Q14833 | 5.00
O=C(Nc1cc(Cl)cc(Cl)c1)[C@H]1CC=CC[C@H]1C(=O)O | UniProtKB Q14833 | 5.57
NC(=O)[C@@H]1CCCC[C@@H]1C(=O)Nc1cc(Cl)cc(Cl)c1 | UniProtKB Q14833 | 6.02

Take each entry in turn and give its pEC50.
1. NC(=O)[C@@H]1CC=CC[C@@H]1C(=O)Nc1cc(Cl)cc(Cl)c1
2. O=C(Nc1cc(Cl)cc(Cl)c1)[C@H]1CCCC[C@H]1C(=O)NCC1CC1
3. O=C(Nc1cc(Cl)cc(Cl)c1)[C@H]1CCCC[C@H]1C(=O)O (relative stereo)

A)
[5.51, 5.00, 6.13]

// batch mode: one pEC50 value per listed entry
1. O=C1[C@H]2CCCC[C@H]2C(=O)N1c1cc(Cl)cc(Cl)c1
2. CCCNC(=O)[C@@H]1CCCC[C@@H]1C(=O)Nc1cc(Cl)cc(Cl)c1

A)
1: 5.48; 2: 5.02

Values from ChEMBL document CHEMBL1155331
